Experiment: Stability of the compound in pH 10.2 borate buffer assessed as compound mean nano particles size at 2 mg/ml by quasi-elastic light scattering method
Format: physicochemical
RECORDED ENDPOINT: Stability (nm)

COc1cc([C@@H]2c3cc4c(cc3[C@H](OC(=O)CCCSSCCCC(=O)OCCC/C(C)=C/CC/C(C)=C/CC/C=C(\C)CC/C=C(\C)CCC=C(C)C)[C@H]3COC(=O)[C@H]23)OCO4)cc(OC)c1OC
202.3
CC[C@@]1(OC(=O)CCCSSCCCC(=O)OCCC/C(C)=C/CC/C(C)=C/CC/C=C(\C)CC/C=C(\C)CCC=C(C)C)C(=O)OCc2c1cc1n(c2=O)Cc2cc3ccccc3nc2-1
160.3
CC(=O)O[C@H]1C(=O)[C@@]2(C)[C@H]([C@H](OC(=O)c3ccccc3)[C@]3(O)C[C@H](OC(=O)[C@H](OC(=O)CCCCCCCCC(=O)OCCC/C(C)=C/CC/C(C)=C/CC/C=C(\C)CC/C=C(\C)CCC=C(C)C)[C@@H](NC(=O)c4ccccc4)c4ccccc4)C(C)=C1C3(C)C)[C@]1(OC(C)=O)CO[C@@H]1C[C@@H]2O
161.4
CC(C)=CCC/C(C)=C/CC/C(C)=C/CC/C=C(\C)CC/C=C(\C)CCCOC(=O)CCCCCCCCC(=O)O[C@H]1[C@@H](C)CCC[C@H]2O[C@H]2C[C@@H](/C(C)=C/c2csc(C)n2)OC(=O)C[C@H](O)C(C)(C)C(=O)[C@@H]1C
351.1

---

System: A549
Test: Cytotoxicity against human A549 cells after 48 hrs by SRB assay
Type: functional, cell-based
Settings: A549, 48 h
pIC50: −log10 of the molar value.
Threshold check on pIC50: at or above 6 gives criterion met, strictly below gives criterion not met.

CC(=O)O[C@H]1C(=O)[C@@]2(C)[C@H]([C@H](OC(=O)c3ccccc3)[C@]3(O)C[C@H](OC(=O)[C@H](OC(=O)CCCSSCCCC(=O)OCCC/C(C)=C/CC/C(C)=C/CC/C=C(\C)CC/C=C(\C)CCC=C(C)C)[C@@H](NC(=O)c4ccccc4)c4ccccc4)C(C)=C1C3(C)C)[C@]1(OC(C)=O)CO[C@@H]1C[C@@H]2O
criterion met
C/C(=C\c1csc(C)n1)[C@@H]1C[C@@H]2O[C@@H]2CCC[C@H](C)[C@H](O)[C@@H](C)C(=O)C(C)(C)[C@@H](O)CC(=O)O1
criterion not met
CC(=O)O[C@H]1C(=O)[C@@]2(C)[C@H]([C@H](OC(=O)c3ccccc3)[C@]3(O)C[C@H](OC(=O)[C@H](O)[C@@H](NC(=O)c4ccccc4)c4ccccc4)C(C)=C1C3(C)C)[C@]1(OC(C)=O)CO[C@@H]1C[C@@H]2O
criterion met
COc1cc([C@@H]2c3cc4c(cc3[C@H](OC(=O)CCCSSCCCC(=O)OCCC/C(C)=C/CC/C(C)=C/CC/C=C(\C)CC/C=C(\C)CCC=C(C)C)[C@H]3COC(=O)[C@H]23)OCO4)cc(OC)c1OC
criterion not met
CC[C@@]1(OC(=O)CCCSSCCCC(=O)OCCC/C(C)=C/CC/C(C)=C/CC/C=C(\C)CC/C=C(\C)CCC=C(C)C)C(=O)OCc2c1cc1n(c2=O)Cc2cc3ccccc3nc2-1
criterion not met
COc1cc([C@@H]2c3cc4c(cc3[C@H](O)[C@H]3COC(=O)[C@H]23)OCO4)cc(OC)c1OC
criterion met

---

Experiment: Stability of the compound in pH 4.5 acetate buffer assessed as compound mean nano particles size at 2 mg/ml by quasi-elastic light scattering method
Assay type: physicochemical
RECORDED ENDPOINT: Stability (nm)

COc1cc([C@@H]2c3cc4c(cc3[C@H](OC(=O)CCCSSCCCC(=O)OCCC/C(C)=C/CC/C(C)=C/CC/C=C(\C)CC/C=C(\C)CCC=C(C)C)[C@H]3COC(=O)[C@H]23)OCO4)cc(OC)c1OC
275.9
CC(C)=CCC/C(C)=C/CC/C(C)=C/CC/C=C(\C)CC/C=C(\C)CCCOC(=O)CCCCCCCCC(=O)O[C@H]1[C@@H](C)CCC[C@H]2O[C@H]2C[C@@H](/C(C)=C/c2csc(C)n2)OC(=O)C[C@H](O)C(C)(C)C(=O)[C@@H]1C
206
CC[C@@]1(OC(=O)CCCSSCCCC(=O)OCCC/C(C)=C/CC/C(C)=C/CC/C=C(\C)CC/C=C(\C)CCC=C(C)C)C(=O)OCc2c1cc1n(c2=O)Cc2cc3ccccc3nc2-1
224.3
CC[C@@]1(OC(=O)CCCCCCCCC(=O)OCCC/C(C)=C/CC/C(C)=C/CC/C=C(\C)CC/C=C(\C)CCC=C(C)C)C(=O)OCc2c1cc1n(c2=O)Cc2cc3ccccc3nc2-1
275.9

---

Experiment: Stability of the compound in presence of 100 mM NaCl assessed as compound mean nano particles size at 2 mg/ml by quasi-elastic light scattering method
Type: physicochemical
RECORDED ENDPOINT: Stability (nm)

CC[C@@]1(OC(=O)CCCCCCCCC(=O)OCCC/C(C)=C/CC/C(C)=C/CC/C=C(\C)CC/C=C(\C)CCC=C(C)C)C(=O)OCc2c1cc1n(c2=O)Cc2cc3ccccc3nc2-1
461.1
CC[C@@]1(OC(=O)CCCSSCCCC(=O)OCCC/C(C)=C/CC/C(C)=C/CC/C=C(\C)CC/C=C(\C)CCC=C(C)C)C(=O)OCc2c1cc1n(c2=O)Cc2cc3ccccc3nc2-1
339.7

---

Assay: Stability of the compound in pH 7.5 phosphate buffer assessed as compound mean nano particles size at 2 mg/ml by quasi-elastic light scattering method
Type: physicochemical
We label by threshold. Values of Stability strictly beneath 200 nm are Fulfilled. Values of 200 nm and up are Not fulfilled.

CC(C)=CCC/C(C)=C/CC/C(C)=C/CC/C=C(\C)CC/C=C(\C)CCCOC(=O)CCCSSCCCC(=O)O[C@H]1[C@@H](C)CCC[C@H]2O[C@H]2C[C@@H](/C(C)=C/c2csc(C)n2)OC(=O)C[C@H](O)C(C)(C)C(=O)[C@@H]1C
Not fulfilled
COc1cc([C@@H]2c3cc4c(cc3[C@H](OC(=O)CCCCCCCCC(=O)OCCC/C(C)=C/CC/C(C)=C/CC/C=C(\C)CC/C=C(\C)CCC=C(C)C)[C@H]3COC(=O)[C@H]23)OCO4)cc(OC)c1OC
Fulfilled
CC(C)=CCC/C(C)=C/CC/C(C)=C/CC/C=C(\C)CC/C=C(\C)CCCOC(=O)CCCCCCCCC(=O)O[C@H]1[C@@H](C)CCC[C@H]2O[C@H]2C[C@@H](/C(C)=C/c2csc(C)n2)OC(=O)C[C@H](O)C(C)(C)C(=O)[C@@H]1C
Not fulfilled
CC(=O)O[C@H]1C(=O)[C@@]2(C)[C@H]([C@H](OC(=O)c3ccccc3)[C@]3(O)C[C@H](OC(=O)[C@H](OC(=O)CCCSSCCCC(=O)OCCC/C(C)=C/CC/C(C)=C/CC/C=C(\C)CC/C=C(\C)CCC=C(C)C)[C@@H](NC(=O)c4ccccc4)c4ccccc4)C(C)=C1C3(C)C)[C@]1(OC(C)=O)CO[C@@H]1C[C@@H]2O
Fulfilled

---

Assay: Stability of the compound in pH 4.5 citrate buffer assessed as compound mean nano particles size at 2 mg/ml by quasi-elastic light scattering method
Assay type: physicochemical
RECORDED ENDPOINT: Stability

CC(=O)O[C@H]1C(=O)[C@@]2(C)[C@H]([C@H](OC(=O)c3ccccc3)[C@]3(O)C[C@H](OC(=O)[C@H](OC(=O)CCCCCCCCC(=O)OCCC/C(C)=C/CC/C(C)=C/CC/C=C(\C)CC/C=C(\C)CCC=C(C)C)[C@@H](NC(=O)c4ccccc4)c4ccccc4)C(C)=C1C3(C)C)[C@]1(OC(C)=O)CO[C@@H]1C[C@@H]2O
391.2 nm
COc1cc([C@@H]2c3cc4c(cc3[C@H](OC(=O)CCCCCCCCC(=O)OCCC/C(C)=C/CC/C(C)=C/CC/C=C(\C)CC/C=C(\C)CCC=C(C)C)[C@H]3COC(=O)[C@H]23)OCO4)cc(OC)c1OC
629.2 nm
CC[C@@]1(OC(=O)CCCSSCCCC(=O)OCCC/C(C)=C/CC/C(C)=C/CC/C=C(\C)CC/C=C(\C)CCC=C(C)C)C(=O)OCc2c1cc1n(c2=O)Cc2cc3ccccc3nc2-1
376.4 nm
CC(=O)O[C@H]1C(=O)[C@@]2(C)[C@H]([C@H](OC(=O)c3ccccc3)[C@]3(O)C[C@H](OC(=O)[C@H](OC(=O)CCCSSCCCC(=O)OCCC/C(C)=C/CC/C(C)=C/CC/C=C(\C)CC/C=C(\C)CCC=C(C)C)[C@@H](NC(=O)c4ccccc4)c4ccccc4)C(C)=C1C3(C)C)[C@]1(OC(C)=O)CO[C@@H]1C[C@@H]2O
462.4 nm
